Assay Target: DC-SIGN (Homo sapiens)
Sequence (Q9NNX6 59-404 limits assumed): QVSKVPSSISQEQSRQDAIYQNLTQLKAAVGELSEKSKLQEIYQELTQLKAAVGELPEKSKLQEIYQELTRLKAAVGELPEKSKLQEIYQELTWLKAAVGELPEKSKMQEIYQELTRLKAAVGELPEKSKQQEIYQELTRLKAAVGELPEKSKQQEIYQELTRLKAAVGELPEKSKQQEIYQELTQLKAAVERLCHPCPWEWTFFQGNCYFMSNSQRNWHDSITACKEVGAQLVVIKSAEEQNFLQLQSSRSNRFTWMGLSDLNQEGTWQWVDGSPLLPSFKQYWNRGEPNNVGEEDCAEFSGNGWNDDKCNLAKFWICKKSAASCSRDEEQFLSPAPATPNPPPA
Quantity: pIC50
Just so you know, pIC50 here is -log10 of the concentration in molar units; reply with that number alone.

Request: Please give measured pIC50 of the following entry: CC(=O)N[C@@H]1C(O)O[C@H](CO)[C@@H](O)[C@@H]1O (stereo partly shown) [N-acetylmannosamine]
Response: 1.95

FYI, the data here is from paper PMC3005762.
